Tested on: RXF 631
test_name: NCI tumour cell line growth inhibition, 48 h
Active and inactive are the calls of the source. No stated cut-off is given here; in the data, active = GI50 up to about 1.1 µM and inactive = higher.
Hi! Could you answer with just one of these? active, inactive

## Input For this molecule, state the assay outcome: COC1C2c3ccccc3C(C#N)(Cc3ccc4c(c32)OCO4)N1C(=O)c1ccccc1 (stereo unspecified)
## Output inactive

## Input What did this assay record as the result for `CNCCCCN(C)/[N+]([O-])=N\O` ?
## Output inactive

## Input What was the test verdict on `O=C1C(c2ccc(Cl)cc2)=[N+]([O-])c2ccccc21` ?
## Output inactive

## Input Short answer needed: outcome of this test for COc1ccccc1/C=C1\CCC(CCN2CCOCC2)C1=O (stereo unspecified) ?
## Output inactive

## Input How did this test come out for `CC(=O)CC(N)=O` ?
## Output inactive

## Input Hello, I am checking results. What call was entered for O=C(Nc1ccc(Cl)c(Cl)c1)C(=O)C(C(=O)c1ccccc1-c1ccccc1)C1OC(=O)c2ccccc21 (stereo unspecified) ?
## Output inactive

## Input Entry `O=[N+]([O-])c1ccc(-c2ccc(C3=Nn4c(nnc4-c4ccc(Cl)cc4)SC3)o2)cc1` : call = ?
## Output inactive

## Input Kindly provide the recorded test outcome for the following molecule: `CC(C)(C)c1cc2nc(c1)C(C(F)(F)F)(C(F)(F)F)OB(Br)OC2(C(F)(F)F)C(F)(F)F`
## Output active

## Input What was the test verdict on `NNC(=O)CCC(=O)Nc1cc(Cl)c(Cl)cc1Cl` ?
## Output inactive

## Input What classification did COC(=O)C1=C(C(=O)OC)C2(C3C(SC)=CC(C)(C)CC3S1)N(Cc1ccccc1)CCN2Cc1ccccc1 (stereo unspecified) end up with in this test?
## Output inactive

## Input Short answer needed: outcome of this test for `Nc1nc(Cl)cc(NCCCCCCNc2cc(Cl)nc(N)n2)n1` ?
## Output inactive

## Input What was the test verdict on CCOC(=O)C1C(=S)NC(=O)C1C#N (stereo unspecified) ?
## Output inactive

## Input Fill in: this test's call for `O=C1C=CC(=CC=C2C=CN(CCCCCCCCCCC(=O)NCCCCCCCCCCCC(=O)O)C=C2)C=C1` is ___
## Output inactive

## Input Recorded call for CCN(CC)CCCC(C)Nc1c(Sc2cnc3cc(Cl)ccc3c2NC(C)CCCN(CC)CC)cnc2cc(Cl)ccc12 (stereo unspecified) ?
## Output inactive

## Input How was `O=C1c2ccccc2C(=O)C12CCc1ccccc12` classified in this test?
## Output inactive

## Input Any idea what this test logged for `C/C(=N\NC(N)=S)c1ccc2c(c1)OCO2` ?
## Output inactive

----------
Test system: LOX IMVI
test_name: NCI tumour cell line growth inhibition, 48 h
Activity calls are given as the source filed them. Rule as the data show it: active = GI50 up to about 1.1 µM and inactive = higher.
Exercise: for every item that follows, state its recorded GI50.

Item: `CCOC(=O)c1c(SC(=O)c2ccc(Cl)cc2)n(-c2ccccc2)c(=S)n(-c2ccccc2)c1=O` | System: LOX IMVI | GI50: > 100 µM (inactive)

Value (GI50, LOX IMVI) for record NCC(O)CSCc1ccc(Cl)cc1 (stereo not drawn) = > 100 µM (inactive)

Noted GI50 for `CC1(C)CCc2ccc(OCCC(=O)O)cc2O1` , tested on LOX IMVI: > 100 µM (inactive)

Summary line: `CCCCCCCCCCCCCS(=O)(=O)O` , LOX IMVI, reported GI50 = > 100 µM (inactive)

The reported LOX IMVI GI50 of `O=S(=O)(N/C(=N\O)Nc1ccc(Cl)cc1)c1ccc(S(=O)(=O)c2ccccc2)s1` is 15.5 µM (inactive)

`C#Cc1cc(CN(CC(=O)OC(C)(C)C)CC(=O)OC(C)(C)C)nc(CN(CC(=O)OC(C)(C)C)CC(=O)OC(C)(C)C)c1` on LOX IMVI gives GI50 = 2.37 µM (inactive)

The compound `Cc1cc(C)nc(NS(=O)(=O)c2ccc(Nc3c4ccccc4nc4c(C(=O)Nc5ccc(S(=O)(=O)N=C(N)N)cc5)ccc(Cl)c34)cc2)n1` , tested on LOX IMVI, showed GI50 of 19.4 µM (inactive)

Measured GI50 (LOX IMVI), entry `COC1(OC)CCc2c(sc3ncnc(Nc4cccc(Br)c4)c23)C1` : 35.7 µM (inactive)

Readout GI50 for `CC(C)/C(Cl)=N\OC(=O)Nc1ccc(F)c([N+](=O)[O-])c1` , test system LOX IMVI, was 4.54 µM (inactive)

Bench note, LOX IMVI: entry COC1(OC)N=C(N)C2(C#N)C(c3ccccc3)NC3=C(CCC3)C12C#N (stereo not drawn) , its GI50 = > 100 µM (inactive)

Form field, GI50 with LOX IMVI, item `C=C1CN(Cc2ccccc2)[C@@H]2CCCCC[C@H](C#N)[C@H]12` : 95.9 µM (inactive)

// returns GI50 for [O-][S+](Nc1ccccc1)c1ccccc1Oc1ccccc1 (stereo not drawn) with LOX IMVI; value = 19.7 µM (inactive)

GI50 value, target or system LOX IMVI, for CN1CCS(=O)(=O)NC(Cc2ccccc2)C(=O)N2CCCC2C1=O (stereo not drawn) : > 100 µM (inactive)

LOX IMVI assay, compound COc1ccc(/C=C2\CN(C)CC3C2=NC(=S)NC3c2ccc(OC)cc2)cc1 (stereo not drawn) , recorded GI50 = 4.76 µM (inactive)

Test item O=C(c1c(O)cc(O)cc1O)C1Cc2ccccc21 (stereo not drawn) ; LOX IMVI; reported GI50 was > 100 µM (inactive)

Entry CCOP(=O)(OCC)OC1C=CC2CCC1C2 (stereo not drawn) : GI50 on LOX IMVI = > 100 µM (inactive)

The observed GI50 for `CCN(CC)CCNc1ccc(/N=N/c2ccc(S(N)(=O)=O)cc2)c2ccccc12` when tested with LOX IMVI stands at 2.65 µM (inactive)

Considering CC1C[C@H](OC(N)=O)C(C)CC1=O (stereo partly drawn) , its GI50 with LOX IMVI was recorded as > 100 µM (inactive)

// compound `COc1ccc(-c2nc(Nc3ccccc3)sc2Cc2sc(Nc3ccccc3)nc2-c2ccc(OC)cc2)cc1` , assay LOX IMVI, GI50 value: 15.5 µM (inactive)

Record CCC1C(=O)C(O)[C@H]2[C@@H]3C(O)CC4=CC(=O)CC[C@]4(C)[C@H]3CC[C@]12C (stereo partly drawn) ; system LOX IMVI; GI50 = > 50 µM (inactive)

The observed GI50 for `O=S(O)CCCCCSSCCCCSSCCCCCS(=O)O` when tested with LOX IMVI stands at > 100 µM (inactive)

Summary line: COc1ccccc1/C=C1\CCC(CCN2CCOCC2)C1=O (stereo not drawn) , LOX IMVI, reported GI50 = 63.2 µM (inactive)

Item: CC(=O)OC1(C#N)CC2OC1C1C2N1C(=O)OC(C)(C)C (stereo not drawn) | System: LOX IMVI | GI50: > 100 µM (inactive)

Field GI50 (system: LOX IMVI) for entry `Cc1nc(-c2ccc([N+](=O)[O-])cc2)cn2c1nc1ccccc12` = > 100 µM (inactive)

GI50 of CC(C)CN1CC(C)C(=O)NC1=O (stereo not drawn) , assay on LOX IMVI, is > 100 µM (inactive)

The compound `O=S(=O)(O)/C(=N\c1cccc(Cc2ccccc2)c1)Nc1cccc(Cc2ccccc2)c1` on LOX IMVI: GI50 was 12.9 µM (inactive)

Record `CCOC(=O)Cc1nnc2c(-c3ccccc3)nc3ccccc3n12` ; system LOX IMVI; GI50 = 53.7 µM (inactive)

Sample C=C1CCC2(C(C)=O)COC1(C)O2 (stereo not drawn) , system: LOX IMVI. Its GI50 is > 100 µM (inactive)

Log: LOX IMVI, compound CCOC(=O)/C(O)=C1\C(=O)N(C)C(=O)C1c1ccc(OC)c(OC)c1 (stereo not drawn) , GI50 = > 100 µM (inactive)

Kindly note: LOX IMVI, `CC1=NN(C(=O)c2ccc(Cl)cc2)C(=O)/C1=C/c1ccco1` , GI50 value reported: > 100 µM (inactive)

LOX IMVI data for `O=C(Cc1nc2ccccc2s1)Nc1ccc(Cl)cc1` ; its GI50: 60.8 µM (inactive)

Form field, GI50 with LOX IMVI, item `Nc1ncnc2sc(Nc3ccccc3)nc12` : 99.3 µM (inactive)

Reading of GI50 for `Cc1nc(Cc2n[nH]c(C)n2)n[nH]1` with LOX IMVI: > 100 µM (inactive)

Fill in: LOX IMVI GI50 for CCCCCCCCCCCC(=O)C1=C(O)CC(O)CC1=O (stereo not drawn) = 54.6 µM (inactive)

Bench note, LOX IMVI: CC1C=C(NCC2(CO)CCC2)N=C(N)N1 (stereo not drawn) , GI50 reads > 100 µM (inactive)

Noted GI50 for CC1(C)[C@@H]2CC[C@@]1(C)C1(S[S+]1[O-])C21Cc2ccccc2C1 (stereo partly drawn) , tested on LOX IMVI: 15.1 µM (inactive)

// GI50 (LOX IMVI) for `Cc1ccc(/C=C/C(=O)c2sc(-c3nc(C)c(C(=O)/C=C/c4ccc(C)cc4)s3)nc2C)cc1` = > 100 µM (inactive)

Reported LOX IMVI GI50 for item `Nc1ccc2c(c1)C(=O)c1ccc(F)cc1-2` was > 100 µM (inactive)

With LOX IMVI as the test system, C[N+]1(C)CCCC1C(=O)[O-] (stereo not drawn) showed GI50 of > 100 µM (inactive)

Let me check: `CCOC(=O)Cc1csc(N/C=C2/C(=O)Oc3ccccc3C2=O)n1` , system LOX IMVI, measured GI50 is 25.6 µM (inactive)

Tested on LOX IMVI, the item `CN(C)c1ccc2c(SCC(=O)OCC(=O)[C@@]3(O)CC[C@H]4[C@@H]5CCC6=CC(=O)C=C[C@]6(C)[C@H]5C(=O)C[C@@]43C)c3ccc(N(C)C)cc3nc2c1` showed GI50 equal to 26.7 µM (inactive)

# value of GI50, LOX IMVI, item O=C(Nc1ccc(Cl)c(Cl)c1)C(=O)C(C(=O)c1ccccc1-c1ccccc1)C1OC(=O)c2ccccc21 (stereo not drawn) = 13.5 µM (inactive)

Field GI50 (LOX IMVI), entry `Oc1ccc(-c2c3ccccc3c(-c3ccc(O)cc3)c3ccccc23)cc1` : 60.5 µM (inactive)
